Biological target: naked CCR1 N-terminus (Homo sapiens, UniProt P32246)
Sequence (P32246 with tags, fused parts or gaps limits assumed): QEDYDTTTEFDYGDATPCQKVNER
Experiment: Fluorescence polarization binding to FAM-labeled CCR1 N-terminal peptide
Conditions: FAM probe 250 nM, FP buffer PBS:MilliQ 1:3, peptide 12.21 nM to 100 µM, n = 3, read-out: dissociation constant (Kd) for CCR1 N-terminal peptide
pKd: −log10 of the molar value. Where no end group is shown, it is not given here.
METRIC_NAME: pKd

>  <ENTRY_SEQUENCE>
RKDRGASKTGKKGKGSKGCKRTERSQTPKGP [C21TP^81-111]

>  <TARGET_SYSTEM>
naked CCR1 N-terminus (Homo sapiens, UniProt P32246)

>  <OBSERVED>
~5.54

$$$$

Where do these numbers come from? They come from paper PMC11477141.
